Assay: Inhibition of quorum sensing system in Pseudomonas aeruginosa
Observed Property: IC50 (µM)
Record the value in µM, omitting the unit from your answer.

Problem: What measured IC50 goes with "CCCCCCCCC(=O)CC(=O)Nc1ccccc1" ?
Solution: 5.5

---

Molecular target: Transcriptional activator protein LasR (Pseudomonas aeruginosa (strain ATCC 15692 / PAO1 / 1C / PRS 101 / LMG12228), UniProt P25084)
Sequence (P25084 whole entry): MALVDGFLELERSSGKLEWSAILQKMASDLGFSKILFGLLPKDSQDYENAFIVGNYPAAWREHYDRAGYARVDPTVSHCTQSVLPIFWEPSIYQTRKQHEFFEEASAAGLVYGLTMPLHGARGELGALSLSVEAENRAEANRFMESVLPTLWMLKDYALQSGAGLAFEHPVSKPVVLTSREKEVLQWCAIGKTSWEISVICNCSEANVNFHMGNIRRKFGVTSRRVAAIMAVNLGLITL
Experiment: Antagonist activity at LasR in Pseudomonas aeruginosa harboring plasI-LVAgfp assessed as inhibition of GFP production incubated for 6 hrs by fluorescence method
Observed Property: pIC50
Quick note: pIC50 values are minus log10 of concentrations in mol/L.

Problem: What measured pIC50 goes with "CCCCCCCCCNC(=O)CC(=O)Cc1ccccc1" ?
Solution: 4.82
